Test system: 171881-019-R-J1-PDC tumor spheroids, viability;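 note: spheroids exposed to compounds for 7 days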
Assay: Anticancer human tumor 171881-019-R-J1-PDC patient-derived invasive breast carcinoma cell line growth inhibition [GQUAD]
Conditions: curve of first compound; second compound 3.16 µM; spheroids with HUVEC and MSC
pIC50: −log10 of the molar value.
property: pIC50

1) O=C(c1cc(Cc2n[nH]c(=O)c3ccccc23)ccc1F)N1CCN(C(=O)C2CC2)CC1 + Cc1[nH]c2ccc(F)cc2c1-c1nc2c3cccnc3c3ncccc3c2[nH]1	> 7.50
2) CCCS(=O)(=O)Nc1ccc(F)c(C(=O)c2c[nH]c3ncc(-c4ccc(Cl)cc4)cc23)c1F + Cc1cnc(CNC(=O)c2c(=O)c3ccc(N4CCCN(C)CC4)nc3n3c2sc2ccccc23)cn1	< 5.00
3) CCc1c2c(nc3ccc(O)cc13)-c1cc3c(c(=O)n1C2)COC(=O)[C@]3(O)CC + CN(C)c1ccc(Nc2c3ccc(NC(=O)CCN4CCCC4)cc3nc3cc(NC(=O)CCN4CCCC4)ccc23)cc1	> 9.00

Now, please, on to the next compound.
In plain terms, CC(C)(O)C1CCC(Nc2ccc3ncc(-c4cccc(C(F)(F)F)c4)n3n2)CC1 (centres undefined) + Cc1[nH]c2ccc(F)cc2c1-c1nc2c3cccnc3c3ncccc3c2[nH]1 has a documented pIC50 of > 7.50
